# Test protocol: Pharmacokinetic study in rabbits (plasma concentration by LC-MS)
# Format: in vivo, rabbit
# Assay setup: female, New Zealand White, rabbit, plasma, sc, 3.7 mg/kg, subcutaneous administration, 40 min, individual rabbits and analyses, read-out: Plasma conc.
Starred links: 1 amine or outer side, 2 acyl side, 3 side chain; linkers in the order of their positions; H or OH if unused. Positions of bridges follow the written chain, without caps; N, C: chain ends. Non-standard residues stand in square brackets, D forms with d. Residues, ends and D or L forms follow the SMILES beside them. TATA = O=C(CC[*:1])N1CN(C(=O)CC[*:2])CN(C(=O)CC[*:3])C1; Phe(4-F) = N[C@@H](Cc1ccc(F)cc1)C(=O)O; β3hR = N=C(N)NCCC[C@H](N)CC(=O)O
Measure name: level at time molar at 40 min (nM)

• CC(C)C[C@@H]1NC(=O)[C@H](CCC(N)=O)NC(=O)[C@H](Cc2c[nH]cn2)NC(=O)[C@@H]2CSCCC(=O)N3CN(CN(C3)C(=O)CCSC[C@H](NC(=O)[C@@H](CO)NC(=O)[C@H](N)CCCNC(=N)N)C(=O)N[C@@H](Cc3ccc(F)cc3)C(=O)N[C@@H](CCCNC(=N)N)C(=O)N[C@@H](CC(C)C)C(=O)N3CCC[C@H]3C(=O)N2)C(=O)CCSC[C@@H](C(N)=O)NC(=O)C[C@H](CCCNC(=N)N)NC1=O [FXII900] (H-[dR][dS]C[Phe(4-F)]RLPCHQL[β3hR]C-NH2; linker 3-8-13 via TATA) = 254
